FYI, the data here is from patent US20080219974A1.

- studySystem: T1, His-tagged HM1.24 antigen, residues N49-A163 of the extracellular domain (UniProt Q10589 49-163)
- T1 chain: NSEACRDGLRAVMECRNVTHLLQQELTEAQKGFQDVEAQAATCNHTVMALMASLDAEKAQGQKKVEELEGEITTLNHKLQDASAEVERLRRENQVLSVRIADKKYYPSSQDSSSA
- experiment: Biacore
Kindly state koff for each of the entries shown.
Numbers only, in s⁻¹.

# example entries with known answers
{"binder": "HM1.24_H1L2 (antibody, V domains shown) VH: QVQLVQSGAEVKKPGASVKVSCKASGYTFTPYWMQWVRQAPGQGLEWMGSIFPGDGDTRYSQSFQGQVTISADKSISTAYMELSRLRSDDTAVYYCARGLRRGGYYFDYWGQGTLVTVSS VL: DIVMTQSPSSLSASVGDRVTITCQASQDVNTAVAWYQQKPDQSPKLLIYSASNRYTGVPDRITGSGSGTDFTLTISSLQAEDVAVYYCQQHYSTPFTFGSGTKLEIKR", "koff / s⁻¹": 0.00318}
{"binder": "HM1.24_H2.3 heavy chain variant with HM1.24_L4 light chain (antibody, V domains shown) VH: EVQLVESGGGLVKPGGSLRLSCAASGYTFTPYWMQWVRQAPGKGLEWMGSIFPGDSDTRYSQSFQGQVTISADKSISTAYMELSSLRSEDTAVYYCARGLRRGGYYFDYWGQGTLVTVSS VL: DIVMTQSPLSLPVTLGQPASISCKASQDVNTAVAWYLQKPGKSPKLLIYSASNRYTGVPDRITGSGSGTDFTLKISRVEAEDVGVYYCQQHYSTPFTFGSGTKLEIKR", "koff / s⁻¹": 0.00374}

For the next question, use this binder.
Q) # get_value(readout='koff', item= HM1.24_H1.1_L2_Hybrid_S239D/I332E (antibody, V domains shown) VH: QVQLVQSGAEVKKPGASVKVSCKASGYTFTPYWMQWVRQAPGQGLEWMGSIFPGEGDTRYSQSFQGQVTISADKSISTAYMELSRLRSDDTAVYYCARGLRRGGYYFDYWGQGTLVTVSS VL: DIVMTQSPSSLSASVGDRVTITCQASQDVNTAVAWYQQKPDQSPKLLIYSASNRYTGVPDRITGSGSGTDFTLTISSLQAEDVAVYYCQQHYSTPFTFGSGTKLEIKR )
A) 0.0032
